Parameter: %Inh. Scope: all listed entries.
- System: CSNK2A1;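 note: KINOMEscan kinase panel screen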
- condition notes: concentration: 1 μM, replicates: in singlicate; n = 1

Consider the reported %Inh for these molecules:
{"columns": ["molecule", "recorded measurement"],
 "data": [
  ["CC(C)(C)OC(=O)NC1CCCN(c2cc(-c3ccc4c(N)n[nH]c4c3)nc(N)n2)C1 (centres unmarked)", "0%"],
  ["Nc1nc(-c2cccnc2)c(-c2ccnc3ccccc23)s1", "2%"],
  ["O=C(Nc1ccccc1)Nc1ccc(Oc2ccc3nccn3n2)cc1", "0%"],
  ["CN1c2ccc(-c3ccc(C(=O)NCCO)cc3)cc2-c2[nH]ncc2S1(=O)=O", "25%"]
]}

Now consider the entry below.
Specify measured %Inh for COc1ccc(Nc2nccc(N3CCC(NC(=O)c4cccc(NC(C)=O)c4)C3)n2)cc1 (centres unmarked) .
0%
